- Test system: NCI-H2023 (Non-Small Cell Lung Carcinoma)
- assay notes: Bliss excess, mean over the matrix (fraction); higher = more synergy
measurement label: Bliss excess
Number only, please.

molecule	target	measurement label	reading
COc1nnc2ccc(N3CCC(c4ccc(OCCN5CCN(C)C(=O)[C@H]5C)cc4)CC3)nn12 [AZD5153] + Cn1cnc2c(F)c(Nc3ccc(Br)cc3Cl)c(C(=O)NOCCO)cc21 [Selumetinib] (first compound max 1 µM, 7x7, partner max 10 µM)	NCI-H2023 (Non-Small Cell Lung Carcinoma)	Bliss excess	-0.0158
C=CCn1c(=O)c2cnc(Nc3ccc(N4CCN(C)CC4)cc3)nc2n1-c1cccc(C(C)(C)O)n1 [AZD1775] + C[C@@H]1COCCN1C2=NC(=NC(=C2)C3(CC3)[S@](=N)(=O)C)C4=C5C=CNC5=NC=C4 [AZD6738] (first compound max 1 µM, partner max 10 µM)	NCI-H2023 (Non-Small Cell Lung Carcinoma)	Bliss excess	-0.0674
Cc1c2c(nn1C)CSCc1cc(n(C)n1)CSc1cc(c3ccccc3c1)OCCCc1c(C(=O)O)n(C)c3c-2c(Cl)ccc13 [AZD5991] + C1CN(CCC1(C(=O)N[C@@H](CCO)C2=CC=C(C=C2)Cl)N)C3=NC=NC4=C3C=CN4 [Capivasertib] (first compound max 1 µM, 7x7, partner max 3 µM)	NCI-H2023 (Non-Small Cell Lung Carcinoma)	Bliss excess	-0.0028

Next:
Bench note: what Bliss excess did CN(CCO)CC[C@H](CSc1ccccc1)Nc1ccc(S(=O)(=O)NC(=O)c2ccc(N3CCC([C@@H](O)c4ccccc4-c4ccc(Cl)cc4)CC3)cc2)cc1S(=O)(=O)C(F)(F)F [AZD4320] + Nc1ccn([C@@H]2O[C@H](CO)[C@@H](O)C2(F)F)c(=O)n1 [Gemcitabine] (first compound max 1 µM, 7x7, partner max 0.3 µM) show?
0.0338

* * *

- Tested on: CAL-85-1 (Breast Carcinoma)
- assay notes: Bliss excess, mean over the matrix (fraction); higher = more synergy
measurement label: Bliss excess
Number only, please.

compound	Bliss excess
CCc1c2c(nc3ccc(O)cc13)-c1cc3c(c(=O)n1C2)COC(=O)[C@]3(O)CC [SN-38] + CN(C)CCCOc1ccc(-c2ccc3ncc4c(c3c2)n(C2CCOCC2)c(=O)n4C)cn1 [AZD0156] (first compound max 0.3 µM, 7x7, partner max 1 µM)	-0.0349

Bench note: what Bliss excess did Cc1c2c(nn1C)CSCc1cc(n(C)n1)CSc1cc(c3ccccc3c1)OCCCc1c(C(=O)O)n(C)c3c-2c(Cl)ccc13 [AZD5991] + Nc1ccn([C@@H]2O[C@H](CO)[C@@H](O)C2(F)F)c(=O)n1 [Gemcitabine] (first compound max 1 µM, 7x7, partner max 0.3 µM) show?
-0.027

* * *

Catalogue of compounds with associated combination Emax
- Test system: NCI-H1648 (Lung Adenocarcinoma)
- assay notes: combination Emax (second highest fraction inhibited in the dose matrix, 72 h); higher = more inhibition; extreme values may be limits of the assay
Number only, please.

compound	combination Emax
CC1(C)CCC(CN2CCN(c3ccc(C(=O)NS(=O)(=O)c4ccc(NCC5CCOCC5)c([N+](=O)[O-])c4)c(Oc4cnc5[nH]ccc5c4)c3)CC2)=C(c2ccc(Cl)cc2)C1 [Venetoclax] + CS(=O)(=O)CCNCc1ccc(-c2ccc3ncnc(Nc4ccc(OCc5cccc(F)c5)c(Cl)c4)c3c2)o1 [Lapatinib] (first compound max 1 µM, 7x7, partner max 10 µM)	0.624
Cn1cnc2c(F)c(Nc3ccc(Br)cc3Cl)c(C(=O)NOCCO)cc21 [Selumetinib] + CC(C)n1c(=O)n(C)c2cnc3cc(F)c(-c4ccc(OCCCN5CCCCC5)nc4)cc3c21 [AZD1390] (first compound max 10 µM, 7x7, partner max 0.3 µM)	0.512
COc1nnc2ccc(N3CCC(c4ccc(OCCN5CCN(C)C(=O)[C@H]5C)cc4)CC3)nn12 [AZD5153] + Cc1c2c(nn1C)CSCc1cc(n(C)n1)CSc1cc(c3ccccc3c1)OCCCc1c(C(=O)O)n(C)c3c-2c(Cl)ccc13 [AZD5991] (first compound max 1 µM, 7x7, partner max 1 µM)	0.818

Next:
Bench note: what combination Emax did Cc1nc(Nc2ncc(C(=O)Nc3c(C)cccc3Cl)s2)cc(N2CCN(CCO)CC2)n1 [Dasatinib] + CC(=O)Nc1cccc(-n2c(=O)n(C3CC3)c(=O)c3c(Nc4ccc(I)cc4F)n(C)c(=O)c(C)c32)c1 [Trametinib] (first compound max 2 µM, 7x7, partner max 1 µM) show?
0.876
